Parameter: Kd. Scope: all listed entries.
biological target: T1, recombinant human TfR1 (transferrin receptor protein 1) (human, UniProt P02786 89-760); assay: Biacore, d0; TfR1 species not stated
T1 construct: Recombinant protein in SPR and ELISA; they were assigned to this molecule; also called hTfR1; huTfR1
T1 sequence (P02786 89-760 limits assumed): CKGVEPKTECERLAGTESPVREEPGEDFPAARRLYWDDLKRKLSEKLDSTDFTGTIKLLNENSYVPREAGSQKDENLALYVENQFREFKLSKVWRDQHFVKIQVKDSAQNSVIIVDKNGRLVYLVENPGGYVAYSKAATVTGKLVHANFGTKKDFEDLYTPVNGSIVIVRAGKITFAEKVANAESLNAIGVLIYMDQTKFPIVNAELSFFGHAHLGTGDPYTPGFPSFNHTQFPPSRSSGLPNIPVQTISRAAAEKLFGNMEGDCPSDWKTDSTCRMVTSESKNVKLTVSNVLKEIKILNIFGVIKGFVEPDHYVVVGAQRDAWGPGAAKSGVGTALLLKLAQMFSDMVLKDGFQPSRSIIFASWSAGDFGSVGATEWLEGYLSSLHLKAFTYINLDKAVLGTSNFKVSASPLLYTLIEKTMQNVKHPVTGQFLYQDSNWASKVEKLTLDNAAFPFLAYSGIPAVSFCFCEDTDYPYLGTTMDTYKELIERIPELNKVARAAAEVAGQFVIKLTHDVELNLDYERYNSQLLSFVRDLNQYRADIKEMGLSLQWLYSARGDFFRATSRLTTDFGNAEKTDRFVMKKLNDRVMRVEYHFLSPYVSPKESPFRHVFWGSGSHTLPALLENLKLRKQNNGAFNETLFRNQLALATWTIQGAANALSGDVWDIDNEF
Field format: number, assumed nM, no unit text.

BINDER	UNIT_ANNOTATION	ASSAY_RESULT
humanized anti-TfR Fab 3A4 VH3 (N54T)/Vκ4 (Fab, V domains shown, also called 3A4 (VH3-N54T/Vk4)) VH: EVQLVQSGSELKKPGASVKVSCTASGFNIKDDYMYWVRQPPGKGLEWIGWIDPETGDTEYASKFQDRVTVTADTSTNTAYMELSSLRSEDTAVYYCTLWLRRGLDYWGQGTLVTVSS VL: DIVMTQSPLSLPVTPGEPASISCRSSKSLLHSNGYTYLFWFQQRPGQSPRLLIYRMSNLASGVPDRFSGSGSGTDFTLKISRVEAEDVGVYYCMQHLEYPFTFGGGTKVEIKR	nM	3.09
humanized anti-TfR Fab 5H12 VH5 (C33Y)/Vκ4 (Fab, V domains shown, also called 5H12 (VH5-C33Y/Vk4)) VH: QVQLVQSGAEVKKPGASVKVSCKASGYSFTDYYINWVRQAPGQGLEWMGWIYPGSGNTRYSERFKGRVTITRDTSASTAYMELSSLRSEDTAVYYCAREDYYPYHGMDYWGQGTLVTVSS VL: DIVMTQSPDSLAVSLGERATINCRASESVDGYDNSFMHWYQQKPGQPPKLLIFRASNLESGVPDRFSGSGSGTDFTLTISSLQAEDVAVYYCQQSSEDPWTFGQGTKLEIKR	nM	0.626

Shifting focus to the binder that follows.
input: Give its Kd value. Item: humanized anti-TfR Fab 3M12 VH4/Vκ3 (Fab, V domains shown, also called 3M12 (VH4/Vk3); anti-TfR Fab 3M12 VH4/Vk3) VH: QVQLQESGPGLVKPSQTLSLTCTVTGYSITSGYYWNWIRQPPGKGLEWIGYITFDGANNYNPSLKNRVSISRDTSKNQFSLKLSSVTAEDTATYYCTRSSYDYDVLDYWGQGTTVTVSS VL: DIQMTQSPSSLSASVGDRVTITCRASQDISNFLNWYQQKPGQPVKLLIYYTSRLHSGVPSRFSGSGSGTDFTLTISSLQPEDFATYYCQQGHTLPYTFGQGTKLEIKR
output: 0.341
